Target: human CRTH2 receptor (Homo sapiens (Human), UniProt Q9Y5Y4)
Sequence (Q9Y5Y4 whole entry): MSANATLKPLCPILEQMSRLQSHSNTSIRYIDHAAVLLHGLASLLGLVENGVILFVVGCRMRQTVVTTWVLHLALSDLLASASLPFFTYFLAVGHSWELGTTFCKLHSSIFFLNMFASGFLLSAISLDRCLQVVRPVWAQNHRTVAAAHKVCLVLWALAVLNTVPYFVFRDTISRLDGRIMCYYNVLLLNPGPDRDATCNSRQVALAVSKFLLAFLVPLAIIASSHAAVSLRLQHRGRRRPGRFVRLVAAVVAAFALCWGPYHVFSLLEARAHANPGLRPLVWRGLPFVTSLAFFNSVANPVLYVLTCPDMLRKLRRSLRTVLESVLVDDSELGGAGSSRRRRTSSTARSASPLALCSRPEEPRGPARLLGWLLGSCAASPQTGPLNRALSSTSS
pKi: −log10 of the molar value.
Label rule, in plain words: pKi of 8 and up is fulfilled, under 8 is not fulfilled.

Recorded results for 5 compounds are shown here.
>>> assigned_label("Cc1nn(Cc2ccc(-c3nc4ccncc4[nH]3)cc2F)c(C)c1CC(=O)O")
"not fulfilled"
>>> assigned_label("CCc1nn(Cc2ccc(-c3nc4cc(C(C)(C)C)ccc4[nH]3)cc2F)c(CC)c1CC(=O)O")
"fulfilled"
>>> assigned_label("Cc1nn(Cc2ccc(-c3nc4cc(C#N)ccc4[nH]3)cc2)c(C)c1CC(=O)O")
"not fulfilled"
>>> assigned_label("CCc1nn(Cc2ccc(-c3nc4cc(Cl)cnc4[nH]3)cc2F)c(CC)c1CC(=O)O")
"fulfilled"
>>> assigned_label("Cc1nn(Cc2ccccc2-c2cc3ccc(Cl)cc3[nH]2)c(C)c1CC(=O)O")
"not fulfilled"

Incoming: Check if pKi >= 8 (inclusive). Item: `CCc1nn(Cc2ccc(-c3nc4c(Cl)cc(Cl)cc4[nH]3)cc2)c(CC)c1CC(=O)O`
Outgoing: fulfilled

Incoming: Try `CCc1nn(Cc2ccc(-c3nc4c(F)cccc4[nH]3)cc2F)c(CC)c1CC(=O)O` next.
Outgoing: fulfilled
